tested.on: recombinant human CD38 (human, UniProt P28907 43-300, limits assumed)
experiment.notes: SPR (Biacore 8K), antibody captured, antigen injected;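 also: antibodies held on a CM5 chip through anti-human IgG Fc, antigen in 3-fold serial dilutions, 1 min association then 10 min dissociation at 25 °C, 1:1 Langmuir global fit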
Reported koff values for a set of binders
Write the answer as a number in s⁻¹, unit excluded.

Use the examples below as a reference point.
23B3 (antibody, human IgG1, kappa, V domains shown, Rabbit-human chimeric anti-CD38: rabbit VH and VL on human IgG1 and kappa constant regions) VH: QSVEESGGRLVTPGTPLTLTCTVSGFSLSNYDMTWVRQAPGRGLEWIGVISSGDNTNYARWAKGRFTISKTSSTTVDLKITSPTTEDTATYFCARILYNKGRYYFTFWGPGTLVTVSS VL: AQVLTQTPSSVSAAVGGTVTINCQSSQSIANSDELAWYQQKPGQPPKLLIYDASTLAPGVPSRFSGSGSGTQFTLTISGVQSDDAATYYCQGTVYDSGWYAAFGGGTEVVVKR : 2.77e-08
17F7 (antibody, human IgG1, kappa, V domains shown, Rabbit-human chimeric anti-CD38: rabbit VH and VL on human IgG1 and kappa constant regions) VH: QSVEESGGRLVTPGTPLTLTCTASGFSLSSYYMSWVRQAPGKGLEWIGFISKTAITYYASWARGRFTISKTSTAVDLKITSPTTEDTATYFCARVDAYSAGDLWGPGTLVTVSS VL: AQVLTQTPSSVSAAVGGTVTINCQASQSVYSDNRLSWFQQKSGQPPKLLIYSTSSLASGVPSRFSGSGSGTQFTLTISGVQSDDAASYYCQGEFICTSADCFVFGGGTEVVVKR : 0.00378
21G2 (antibody, human IgG1, kappa, V domains shown, Rabbit-human chimeric anti-CD38: rabbit VH and VL on human IgG1 and kappa constant regions) VH: QSVEESGGRLVTPGTPLTLTCTVSGFSLSNYGVSWVRQAPGKGLEWIGYILTSGGTYYANWAQGRFTISKTSTTVDLKITSPTTEDTATYFCGRPKDSDSSAFVSLWGPGTLVTVSS VL: DVVMTQTPASVSEPVGGTVTINCQASESIYSNLAWYQQKPGQPPKLLIYKASTLASGVSSRFKGSGSGTEFTLTISDLESADAATYYCQANHMIVIYGNGFGGGTEVVVKR : 3.1e-05

The binder listed as 17E9 (antibody, human IgG1, kappa, V domains shown, Rabbit-human chimeric anti-CD38: rabbit VH and VL on human IgG1 and kappa constant regions) VH: QSVEESGGRLVTPGTPLTLTCTASGFSLSRYYVTWVRQAPGKGLEWIGIIYISGTTYYATWAKGRFTISKSATTVDLRIASPTTEDTATYFCAAAWPVGTYVLPLWGPGTLVTVSS VL: AAVLTQTPSPVSAAVGGTVTIKCQSSQSVVNANNLSWYQQKPGQPPKLLIYLASTLASGVPSRFSGSGSGTQFTLTISSVQSDDAATYYCLGVYDDDGDNAFGGGTEVVVKR shows koff equal to 0.000142
